The reported measurements were obtained from the supplement of paper PMC11851430.

# assay target: UniProt:Q8TD19
# test method notes: apparent dissociation constant Kd app (Kinobeads competition, EC50 x correction factor)
# condition context: lysate: Jurkat cell lysate
experimental endpoint: pKd
Would you please state pKd, meaning minus log10 of the concentration in mol/L, as a bare number?

**Query** Tell me the measured pKd of "NC(=O)c1ccccc1Nc1nc(Nc2ccc(N3CCNCC3)cc2)ncc1Cl" , please.
**Result** 7.02

====

# assay target: TAOK2 (UniProt Q9UL54)
# Sequence (Q9UL54 whole entry): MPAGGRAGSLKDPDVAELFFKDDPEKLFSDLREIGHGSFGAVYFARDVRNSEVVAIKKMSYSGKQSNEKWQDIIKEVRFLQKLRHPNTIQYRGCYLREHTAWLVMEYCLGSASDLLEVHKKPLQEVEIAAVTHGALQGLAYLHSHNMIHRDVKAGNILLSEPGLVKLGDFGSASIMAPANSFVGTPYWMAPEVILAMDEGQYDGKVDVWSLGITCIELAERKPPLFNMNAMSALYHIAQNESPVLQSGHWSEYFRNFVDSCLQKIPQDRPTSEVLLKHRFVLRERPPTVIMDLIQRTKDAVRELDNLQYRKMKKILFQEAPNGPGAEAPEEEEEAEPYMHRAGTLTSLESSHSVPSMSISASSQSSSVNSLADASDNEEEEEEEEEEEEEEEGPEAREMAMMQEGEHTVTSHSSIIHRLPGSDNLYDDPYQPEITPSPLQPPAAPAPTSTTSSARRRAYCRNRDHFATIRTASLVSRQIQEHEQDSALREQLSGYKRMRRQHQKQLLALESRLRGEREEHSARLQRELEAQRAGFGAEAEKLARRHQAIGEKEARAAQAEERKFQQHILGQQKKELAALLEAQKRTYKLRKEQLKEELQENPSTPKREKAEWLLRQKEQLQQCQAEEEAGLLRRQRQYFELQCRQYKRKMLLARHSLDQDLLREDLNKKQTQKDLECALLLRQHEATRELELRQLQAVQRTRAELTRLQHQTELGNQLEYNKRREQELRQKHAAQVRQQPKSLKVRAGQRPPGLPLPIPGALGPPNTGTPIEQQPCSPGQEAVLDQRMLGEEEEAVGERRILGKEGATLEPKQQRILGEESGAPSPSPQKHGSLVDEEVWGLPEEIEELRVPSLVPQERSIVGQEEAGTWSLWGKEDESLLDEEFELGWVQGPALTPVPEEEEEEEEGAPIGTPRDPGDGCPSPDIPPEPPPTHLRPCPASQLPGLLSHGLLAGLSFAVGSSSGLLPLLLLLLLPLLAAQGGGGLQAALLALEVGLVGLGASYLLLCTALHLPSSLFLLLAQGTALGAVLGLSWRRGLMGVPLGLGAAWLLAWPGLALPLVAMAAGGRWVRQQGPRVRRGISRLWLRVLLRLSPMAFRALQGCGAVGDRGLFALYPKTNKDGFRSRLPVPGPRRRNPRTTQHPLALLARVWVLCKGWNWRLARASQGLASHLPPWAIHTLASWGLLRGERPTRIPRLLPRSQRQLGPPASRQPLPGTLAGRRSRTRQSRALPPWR
# test method notes: apparent dissociation constant Kd app (Kinobeads competition, EC50 x correction factor)
# condition context: lysate: Jurkat cell lysate
experimental endpoint: pKd
Would you please state pKd, meaning minus log10 of the concentration in mol/L, as a bare number?

**Query** Quick one: pKd for "NC(=O)c1ccccc1Nc1nc(Nc2ccc(N3CCNCC3)cc2)ncc1Cl" ?
**Result** 6.25

====

# assay target: PRKAA1 (UniProt Q13131)
# test method notes: apparent dissociation constant Kd app (Kinobeads competition, EC50 x correction factor)
# condition context: lysate: Jurkat cell lysate
experimental endpoint: Kd (nM)
Return type: number; implicit unit nM.

**Query** Any idea what Kd was measured for "NC(=O)c1ccccc1Nc1nc(Nc2ccc(N3CCNCC3)cc2)ncc1Cl" ?
**Result** 83

====

# assay target: SRC (UniProt P12931)
# test method notes: apparent dissociation constant Kd app (Kinobeads competition, EC50 x correction factor)
# condition context: lysate: Jurkat cell lysate
experimental endpoint: Kd (nM)
API: value field is a number in nM; no unit string.

**Query** Look up Kd: "NC(=O)c1ccccc1Nc1nc(Nc2ccc(N3CCNCC3)cc2)ncc1Cl"
**Result** 808

====

# assay target: UniProt:P41240
# test method notes: apparent dissociation constant Kd app (Kinobeads competition, EC50 x correction factor)
# condition context: lysate: Jurkat cell lysate
experimental endpoint: pKd
For clarity, pKd is expressed as the negative log10 of concentration in mol/L.

**Query** Entry under review: "NC(=O)c1ccccc1Nc1nc(Nc2ccc(N3CCNCC3)cc2)ncc1Cl" . Reported pKd?
**Result** 5.66

====

# assay target: CDC42BPA (UniProt Q5VT25)
# Sequence (Q5VT25 whole entry): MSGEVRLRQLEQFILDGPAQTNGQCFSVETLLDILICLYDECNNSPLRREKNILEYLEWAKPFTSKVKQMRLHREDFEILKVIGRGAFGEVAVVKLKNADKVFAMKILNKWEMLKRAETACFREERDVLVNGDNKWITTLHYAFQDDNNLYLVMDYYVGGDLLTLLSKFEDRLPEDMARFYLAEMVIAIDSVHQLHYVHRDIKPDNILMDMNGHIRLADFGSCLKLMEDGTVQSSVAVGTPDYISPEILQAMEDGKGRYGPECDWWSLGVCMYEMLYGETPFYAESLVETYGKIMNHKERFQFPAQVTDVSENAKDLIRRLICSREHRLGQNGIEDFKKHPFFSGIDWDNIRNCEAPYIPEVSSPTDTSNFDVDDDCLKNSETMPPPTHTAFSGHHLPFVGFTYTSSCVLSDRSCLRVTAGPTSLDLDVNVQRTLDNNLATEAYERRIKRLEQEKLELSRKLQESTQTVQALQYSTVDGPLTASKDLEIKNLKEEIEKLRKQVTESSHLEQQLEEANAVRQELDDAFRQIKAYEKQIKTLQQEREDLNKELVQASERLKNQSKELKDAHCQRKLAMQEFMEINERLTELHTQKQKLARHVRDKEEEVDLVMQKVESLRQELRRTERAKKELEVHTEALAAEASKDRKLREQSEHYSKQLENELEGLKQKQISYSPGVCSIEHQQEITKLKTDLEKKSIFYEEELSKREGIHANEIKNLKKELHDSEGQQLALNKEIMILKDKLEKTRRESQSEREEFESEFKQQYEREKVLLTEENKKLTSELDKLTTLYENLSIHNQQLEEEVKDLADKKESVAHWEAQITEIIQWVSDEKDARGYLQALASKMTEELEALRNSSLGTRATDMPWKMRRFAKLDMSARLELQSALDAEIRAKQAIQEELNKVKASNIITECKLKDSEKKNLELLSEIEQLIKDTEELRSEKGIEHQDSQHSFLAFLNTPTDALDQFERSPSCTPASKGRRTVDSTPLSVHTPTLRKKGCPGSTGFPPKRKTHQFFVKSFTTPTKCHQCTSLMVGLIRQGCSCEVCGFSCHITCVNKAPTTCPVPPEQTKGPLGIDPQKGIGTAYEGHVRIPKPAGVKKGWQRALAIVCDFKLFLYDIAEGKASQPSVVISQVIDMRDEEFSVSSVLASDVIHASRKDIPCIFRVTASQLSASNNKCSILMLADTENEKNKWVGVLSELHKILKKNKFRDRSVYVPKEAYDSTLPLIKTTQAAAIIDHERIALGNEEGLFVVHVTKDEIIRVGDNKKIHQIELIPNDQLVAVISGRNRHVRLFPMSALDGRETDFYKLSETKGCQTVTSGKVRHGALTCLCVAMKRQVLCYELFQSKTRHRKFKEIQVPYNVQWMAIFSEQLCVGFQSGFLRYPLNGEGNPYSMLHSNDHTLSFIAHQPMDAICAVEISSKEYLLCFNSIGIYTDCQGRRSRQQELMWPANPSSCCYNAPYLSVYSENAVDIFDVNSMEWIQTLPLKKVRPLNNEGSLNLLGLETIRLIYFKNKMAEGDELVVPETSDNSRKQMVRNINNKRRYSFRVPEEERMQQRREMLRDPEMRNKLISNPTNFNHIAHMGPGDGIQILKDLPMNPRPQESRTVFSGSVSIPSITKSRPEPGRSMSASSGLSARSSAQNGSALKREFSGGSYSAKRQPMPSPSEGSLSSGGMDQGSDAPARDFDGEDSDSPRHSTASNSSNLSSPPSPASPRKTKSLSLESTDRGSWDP
# test method notes: apparent dissociation constant Kd app (Kinobeads competition, EC50 x correction factor)
# condition context: lysate: Jurkat cell lysate
experimental endpoint: Kd
Please don't drop the unit; write it after the number.

**Query** Data request, read-out Kd, for "NC(=O)c1ccccc1Nc1nc(Nc2ccc(N3CCNCC3)cc2)ncc1Cl"
**Result** 1.32 µM

====

# assay target: PAK4 (UniProt O96013)
# test method notes: apparent dissociation constant Kd app (Kinobeads competition, EC50 x correction factor)
# condition context: lysate: Jurkat cell lysate
experimental endpoint: Kd (µM)
The reply should contain only the number, in µM.

**Query** Kindly state the measured Kd obtained for "NC(=O)c1ccccc1Nc1nc(Nc2ccc(N3CCNCC3)cc2)ncc1Cl" with PAK4 (UniProt O96013).
**Result** 0.424

====

# assay target: UniProtKB Q96GD4
# Sequence (Q96GD4 whole entry): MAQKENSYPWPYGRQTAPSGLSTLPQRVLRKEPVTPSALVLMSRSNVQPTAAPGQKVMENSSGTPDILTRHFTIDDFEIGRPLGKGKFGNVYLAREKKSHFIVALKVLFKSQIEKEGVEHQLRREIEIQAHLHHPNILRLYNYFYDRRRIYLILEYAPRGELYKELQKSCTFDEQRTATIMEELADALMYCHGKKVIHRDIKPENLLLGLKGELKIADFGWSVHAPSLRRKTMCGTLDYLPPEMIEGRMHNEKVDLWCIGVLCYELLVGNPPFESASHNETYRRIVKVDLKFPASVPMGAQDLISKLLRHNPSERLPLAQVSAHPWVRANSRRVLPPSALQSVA
# test method notes: apparent dissociation constant Kd app (Kinobeads competition, EC50 x correction factor)
# condition context: lysate: Jurkat cell lysate
experimental endpoint: pKd
# pKd = -log10(concentration in molar units)

**Query** Item "NC(=O)c1ccccc1Nc1nc(Nc2ccc(N3CCNCC3)cc2)ncc1Cl" with UniProtKB Q96GD4 - pKd?
**Result** 7.45

====

# assay target: PKN1 (UniProt Q16512)
# Sequence (Q16512 whole entry, looked up): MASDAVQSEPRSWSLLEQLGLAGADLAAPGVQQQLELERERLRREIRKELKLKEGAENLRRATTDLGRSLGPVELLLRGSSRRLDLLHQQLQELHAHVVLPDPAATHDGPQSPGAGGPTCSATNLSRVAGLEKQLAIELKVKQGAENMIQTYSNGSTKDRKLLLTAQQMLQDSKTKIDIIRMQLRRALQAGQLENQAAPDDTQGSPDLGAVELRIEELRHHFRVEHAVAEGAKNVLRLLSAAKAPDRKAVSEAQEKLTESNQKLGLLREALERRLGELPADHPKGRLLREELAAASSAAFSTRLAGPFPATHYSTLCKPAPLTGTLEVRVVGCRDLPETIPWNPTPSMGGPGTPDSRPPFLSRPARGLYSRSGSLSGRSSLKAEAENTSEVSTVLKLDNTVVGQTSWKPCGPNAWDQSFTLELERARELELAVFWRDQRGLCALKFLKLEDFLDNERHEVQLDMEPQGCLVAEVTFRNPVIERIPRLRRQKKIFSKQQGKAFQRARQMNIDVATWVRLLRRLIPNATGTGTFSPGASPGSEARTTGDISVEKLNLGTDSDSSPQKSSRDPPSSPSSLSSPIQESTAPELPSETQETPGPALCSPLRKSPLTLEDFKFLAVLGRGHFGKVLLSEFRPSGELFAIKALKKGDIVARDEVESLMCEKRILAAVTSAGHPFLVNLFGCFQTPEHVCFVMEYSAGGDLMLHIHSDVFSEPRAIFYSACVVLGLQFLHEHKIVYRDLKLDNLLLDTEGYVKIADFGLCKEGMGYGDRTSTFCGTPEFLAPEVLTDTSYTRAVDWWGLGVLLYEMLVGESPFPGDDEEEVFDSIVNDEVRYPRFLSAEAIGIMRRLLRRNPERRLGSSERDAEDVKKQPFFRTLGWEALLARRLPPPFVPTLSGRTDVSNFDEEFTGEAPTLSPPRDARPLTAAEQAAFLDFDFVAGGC
# test method notes: apparent dissociation constant Kd app (Kinobeads competition, EC50 x correction factor)
# condition context: lysate: Jurkat cell lysate
experimental endpoint: pKd
# pKd is unitless: minus log10 of the molar concentration; print number only

**Query** Please state recorded pKd (tested on PKN1 (UniProt Q16512)) of "NC(=O)c1ccccc1Nc1nc(Nc2ccc(N3CCNCC3)cc2)ncc1Cl"
**Result** 5.82

====

# assay target: PHKG2 (UniProt P15735)
# Sequence (P15735 whole entry): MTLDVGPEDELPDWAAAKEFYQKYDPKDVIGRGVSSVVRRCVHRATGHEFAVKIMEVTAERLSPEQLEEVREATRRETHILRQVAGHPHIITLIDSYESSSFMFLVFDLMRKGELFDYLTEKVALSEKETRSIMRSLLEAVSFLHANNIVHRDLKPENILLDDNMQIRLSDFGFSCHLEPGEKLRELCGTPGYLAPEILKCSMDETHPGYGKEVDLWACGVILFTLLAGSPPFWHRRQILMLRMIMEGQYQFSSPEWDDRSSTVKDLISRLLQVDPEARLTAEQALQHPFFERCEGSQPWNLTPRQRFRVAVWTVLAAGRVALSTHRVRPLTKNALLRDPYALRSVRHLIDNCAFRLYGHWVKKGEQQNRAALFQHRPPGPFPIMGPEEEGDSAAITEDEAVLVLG
# test method notes: apparent dissociation constant Kd app (Kinobeads competition, EC50 x correction factor)
# condition context: lysate: Jurkat cell lysate
experimental endpoint: Kd (µM)
Provide the reading as a plain figure in µM.

**Query** Tell me reported Kd for "NC(=O)c1ccccc1Nc1nc(Nc2ccc(N3CCNCC3)cc2)ncc1Cl" , tested with PHKG2 (UniProt P15735).
**Result** 1.15

====

# assay target: UniProt:Q16584
# test method notes: apparent dissociation constant Kd app (Kinobeads competition, EC50 x correction factor)
# condition context: lysate: Jurkat cell lysate
experimental endpoint: Kd (nM)
Your answer is read as nM, so omit the unit and give the number.

**Query** Could you tell me which Kd is on file for "NC(=O)c1ccccc1Nc1nc(Nc2ccc(N3CCNCC3)cc2)ncc1Cl" ?
**Result** 231

====

# assay target: UniProt:P06493
# Sequence (P06493 whole entry, looked up): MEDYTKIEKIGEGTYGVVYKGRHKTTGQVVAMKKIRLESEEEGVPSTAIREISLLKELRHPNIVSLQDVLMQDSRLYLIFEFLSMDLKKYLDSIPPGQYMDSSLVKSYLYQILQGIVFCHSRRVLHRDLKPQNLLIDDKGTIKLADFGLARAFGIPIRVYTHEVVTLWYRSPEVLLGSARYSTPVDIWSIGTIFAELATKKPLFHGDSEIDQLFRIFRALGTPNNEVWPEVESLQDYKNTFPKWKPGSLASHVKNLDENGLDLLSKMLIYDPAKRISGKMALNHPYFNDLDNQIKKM
# test method notes: apparent dissociation constant Kd app (Kinobeads competition, EC50 x correction factor)
# condition context: lysate: Jurkat cell lysate
experimental endpoint: pKd
Please report pKd as the negative decimal logarithm of the molar concentration, giving only the number.

**Query** // map "NC(=O)c1ccccc1Nc1nc(Nc2ccc(N3CCNCC3)cc2)ncc1Cl" to recorded pKd (system: UniProt:P06493)
**Result** 5.72

====

# assay target: TAOK3 (UniProt Q9H2K8)
# Sequence (whole entry): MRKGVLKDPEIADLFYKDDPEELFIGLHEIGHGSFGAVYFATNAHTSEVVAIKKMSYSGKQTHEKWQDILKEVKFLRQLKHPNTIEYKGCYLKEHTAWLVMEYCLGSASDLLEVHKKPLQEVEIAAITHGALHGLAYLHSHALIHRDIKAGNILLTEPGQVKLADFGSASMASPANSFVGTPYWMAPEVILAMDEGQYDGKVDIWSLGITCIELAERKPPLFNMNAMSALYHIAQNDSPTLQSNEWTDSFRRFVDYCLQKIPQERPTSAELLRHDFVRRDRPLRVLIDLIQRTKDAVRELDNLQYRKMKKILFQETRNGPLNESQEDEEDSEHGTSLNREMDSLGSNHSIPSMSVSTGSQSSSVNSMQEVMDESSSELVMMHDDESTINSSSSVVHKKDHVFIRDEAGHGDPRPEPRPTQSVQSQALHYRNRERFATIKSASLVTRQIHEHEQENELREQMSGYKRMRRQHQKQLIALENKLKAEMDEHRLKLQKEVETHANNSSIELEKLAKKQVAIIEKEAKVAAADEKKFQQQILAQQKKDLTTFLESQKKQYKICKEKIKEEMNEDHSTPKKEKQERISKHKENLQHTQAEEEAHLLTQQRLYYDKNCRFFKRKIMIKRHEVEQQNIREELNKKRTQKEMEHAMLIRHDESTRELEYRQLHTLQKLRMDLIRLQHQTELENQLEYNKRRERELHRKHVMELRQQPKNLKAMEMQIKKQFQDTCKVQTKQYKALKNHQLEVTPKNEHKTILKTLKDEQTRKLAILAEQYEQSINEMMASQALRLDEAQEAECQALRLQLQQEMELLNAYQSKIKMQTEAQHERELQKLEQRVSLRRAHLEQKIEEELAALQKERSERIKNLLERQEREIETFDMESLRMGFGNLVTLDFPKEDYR
# test method notes: apparent dissociation constant Kd app (Kinobeads competition, EC50 x correction factor)
# condition context: lysate: Jurkat cell lysate
experimental endpoint: pKd
Scale: negative log10 of molar concentration, which is what pKd denotes.

**Query** Item "NC(=O)c1ccccc1Nc1nc(Nc2ccc(N3CCNCC3)cc2)ncc1Cl" with TAOK3 (UniProt Q9H2K8) - pKd?
**Result** 6.06
